The measurements presented in this section are drawn from patent US5518737A.

- Measurement protocol: physchem
- Test context: buffer, pH 7.3, aqueous buffer
Counter-ions that a name gives are not always drawn.
Readout: solubility (mg/mL)
Just the number in mg/mL, nothing appended.

// field: solubility; key: CC(C)NCC(O)COc1cccc2ccccc12 (stereo not shown) [propranolol, propranolol hydrochloride] ; value = 94
